# Tested on: Plasmodium berghei
# protocol_description: Screen against P. berghei liver stage (PbLuc), transformed with Luciferase, at 10uM
# Assay type: functional, HepG2
# applied_conditions: tested at 10 uM
Screen size: about 69,000 compounds; about 8,600 (12%) showed an effect of 50% or more. For the sample, strong results were picked, then their nearest neighbours and some compounds at random.
Entries annotated with measured INHIBITION
Write it as a number; the unit % goes unstated.

compound	result_type	val
CCc1nccc(CN2CCC(CNC(=O)C3CCC(C)CC3)C2)n1 (centres undefined)	INHIBITION	7.43
OC[C@H]1CCN(Cc2ccc3ccccc3n2)C[C@@H]1O	INHIBITION	2.25
CCOc1ccc2nc(CN3CCC(CNC(C)=O)C3)ccc2c1 (centres undefined)	INHIBITION	51.5

Assay Plasmodium berghei, sample CCOc1ccc2nc(CN3CCOC(CN)C3)ccc2c1 (centres undefined) , INHIBITION read: 24.8
